Test Name: Ex vivo biodistribution in H69-tumor bearing mice
Conditions: mouse, in vivo, iv, Uptake in Skin, 4 h p.i., n = 4
Description: Six-week‐old female Balb/c nu/nu‐specific mice (Janvier Labs, Le Genest‐Saint‐Isle, France) were housed in individually ventilated cages (4 mice/cage). Upon arrival, mice were acclimated for one week, with access to food and water ad libitum. Mice were subcutaneously inoculated on the right shoulder with NCI-H69 cells (5 × 10^6 cells) suspended in 100 μL of 1/3 Matrigel (Corning Inc.; Corning, NY, USA) and 2/3 Hank’s balanced salt solution (Gibco; Paisley, UK). […]
Recorded Metric: tissue uptake at 4 h (%ID/g)
Note: unit %ID/g is implicit; provide only the numeric part.

Consider the compound C[C@@H](O)[C@H](NC(=O)[C@@H]1CSSC[C@H](NC(=O)[C@@H](Cc2ccccc2)NC(=O)CN2CCN(CC(=O)O)CCN(CC(=O)O)CCN(CC(=O)O)CC2)C(=O)N[C@@H](Cc2ccc(O)cc2)C(=O)N[C@H](Cc2c[nH]c3ccccc23)C(=O)N[C@@H](CCCCN)C(=O)N[C@@H]([C@@H](C)O)C(=O)N1)C(=O)O [[^111In]In-DOTA-TATE, metal not drawn, reference compound] and give its measured tissue uptake at 4 h.
0.29

All figures here come from paper PMC11111636.
